Target: penetratin (AntP) peptide (Drosophila melanogaster)
Construct: C-terminal amide (CONH2); made in house; host or cells: chemical synthesis (Fmoc solid-phase peptide synthesis)
Assay: Conjugation of activated disulfide-MMAE molecules to penetratin (AntP) peptide (% Product)
Settings: peptide 25 uM, disulfide MMAE 5 equivalents, 75 mM Tris pH 8.5 and 10% DMF, ~16 hours at room temperature, UV peak area
Where a SMILES comes first, the peptide text is derived from it. [ ]: non-standard residue; d: D form. The star is where a group is joined. Dolaproine = CO[C@@H]([C@@H]1CCCN1)[C@@H](C)C(=O)O; X11 = CC(C)(COC(=O)*)SSc1nc2ccc(C(=O)O)cc2[nH]1; Dil = CC[C@H](C)[C@H](NC)[C@@H](CC(=O)O)OC; X16 = CN(C)C(=O)c1cnccc1SSC(C)(C)COC(=O)*; X10 = CC(C)(COC(=O)*)SSc1nc2ncncc2[nH]1; X8 = CC(C)(COC(=O)*)SSc1nc2nccnc2[nH]1; X2 = C[C@@H](N*)[C@@H](O)c1ccccc1; NMeV = CN[C@H](C(=O)O)C(C)C
measured_endpoint: AntP % P (penetratin (AntP) peptide % product)
Give the number first and the unit second.

Recorded AntP % P (penetratin (AntP) peptide % product), per entry:
compound	result
CC[C@H](C)[C@@H]([C@@H](CC(=O)N1CCC[C@H]1[C@H](OC)[C@@H](C)C(=O)N[C@H](C)[C@@H](O)c1ccccc1)OC)N(C)C(=O)[C@@H](NC(=O)[C@H](C(C)C)N(C)C(=O)OCC(C)(C)SSc1nc2nccnc2[nH]1)C(C)C (X8-[NMeV]V[Dil][Dolaproine]-X2)	36%
CC[C@H](C)[C@@H]([C@@H](CC(=O)N1CCC[C@H]1[C@H](OC)[C@@H](C)C(=O)N[C@H](C)[C@@H](O)c1ccccc1)OC)N(C)C(=O)[C@@H](NC(=O)[C@H](C(C)C)N(C)C(=O)OCC(C)(C)SSc1nc2ncncc2[nH]1)C(C)C (X10-[NMeV]V[Dil][Dolaproine]-X2)	34%
CC[C@H](C)[C@@H]([C@@H](CC(=O)N1CCC[C@H]1[C@H](OC)[C@@H](C)C(=O)N[C@H](C)[C@@H](O)c1ccccc1)OC)N(C)C(=O)[C@@H](NC(=O)[C@H](C(C)C)N(C)C(=O)OCC(C)(C)SSc1ccncc1C(=O)N(C)C)C(C)C (X16-[NMeV]V[Dil][Dolaproine]-X2)	51%

Proceed to the following item.
stdin: Need AntP % P (penetratin (AntP) peptide % product) of CC[C@H](C)[C@@H]([C@@H](CC(=O)N1CCC[C@H]1[C@H](OC)[C@@H](C)C(=O)N[C@H](C)[C@@H](O)c1ccccc1)OC)N(C)C(=O)[C@@H](NC(=O)[C@H](C(C)C)N(C)C(=O)OCC(C)(C)SSc1nc2ccc(C(=O)O)cc2[nH]1)C(C)C (X11-[NMeV]V[Dil][Dolaproine]-X2) , thanks.
stdout: 20%

====

Assay: In vitro disulfide cleavage and immolation by incubation with cysteine or glutathione (LC/MS)
Assay type: physicochemical
Details: 4 mM GSH, pH 7.0, 37° C., 4 h
Friendly reminder: Percentage of all products below 0.2% is yes, at or above is no.

Reference set (3 entries):
compound	label_class
C=C1CC2C=Nc3cc(OCCCCCOc4cc5c(cc4OC)C(=O)N4CC(=C)CC4C(O)N5C(=O)OCC(C)SSc4ccc([N+](=O)[O-])cn4)c(OC)cc3C(=O)N2C1 (centres unmarked)	no
C=C1C[C@H]2C=Nc3cc(OCCCCCOc4cc5c(cc4OC)C(=O)N4CC(=C)C[C@H]4C(O)N5C(=O)OCC4(SSc5ccc([N+](=O)[O-])cn5)CC4)c(OC)cc3C(=O)N2C1 (some centres unmarked)	no
C=C1C[C@H]2C=Nc3cc(OCCCCCOc4cc5c(cc4OC)C(=O)N4CC(=C)C[C@H]4C(O)N5C(=O)OCC4(SSc5ccc([N+](=O)[O-])cn5)CCC4)c(OC)cc3C(=O)N2C1 (some centres unmarked)	no

stdin: Please indicate whether the reported Percentage of all products of C=C1C[C@H]2C=Nc3cc(OCCCCCOc4cc5c(cc4OC)C(=O)N4CC(=C)C[C@H]4C(O)N5C(=O)OCC4(S)CCC4)c(OC)cc3C(=O)N2C1 (some centres unmarked) is strictly below 0.2%.
stdout: yes

Cited source for all entries: patent US10729738B2
